biological target: Cellular tumor antigen p53 (Homo sapiens) (UniProt P04637); experiment: TOX21_p53_BLA_p4_ratio: Tox21 HCT-116 p53 Agonism Beta-lactamase Assay, Ratio, Phase 4 (AID 2283601)
Sequence (P04637 whole entry, looked up): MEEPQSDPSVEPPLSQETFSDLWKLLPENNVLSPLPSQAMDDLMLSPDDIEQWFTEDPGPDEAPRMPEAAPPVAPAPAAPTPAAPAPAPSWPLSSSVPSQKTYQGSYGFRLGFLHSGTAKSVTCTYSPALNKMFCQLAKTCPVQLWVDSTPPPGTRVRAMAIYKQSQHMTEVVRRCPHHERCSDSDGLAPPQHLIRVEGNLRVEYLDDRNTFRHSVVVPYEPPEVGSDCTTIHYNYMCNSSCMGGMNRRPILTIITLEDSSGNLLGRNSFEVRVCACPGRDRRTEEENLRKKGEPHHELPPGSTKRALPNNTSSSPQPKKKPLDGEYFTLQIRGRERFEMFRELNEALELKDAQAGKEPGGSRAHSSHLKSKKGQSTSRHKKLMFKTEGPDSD
Results filed as inconclusive are left out. The source made the active and inactive calls. The calls were made as follows: active = hit-call score of the fitted dose curve at least 0.9, where 1 is the maximum; inconclusive = response in the unintended direction; inactive = score below 0.9.
Outcomes: class 1 for active, class 0 for inactive

compound=C[Si](C)(C)Cl qualitative_label="class 0"
compound="CCN(CCCCOC(=O)c1ccc(OC)c(OC)c1)C(C)Cc1ccc(OC)cc1 (stereo not drawn)" qualitative_label="class 0"
compound=O=C(O)Cc1sc(-c2ccccc2)nc1-c1ccc(Cl)cc1 qualitative_label="class 0"
compound="COc1cc(N)c(Cl)cc1C(=O)NC1CCN(CCCOc2ccc(F)cc2)CC1OC (stereo not drawn)" qualitative_label="class 0"
compound=NCCCC[C@H](N)C(=O)O qualitative_label="class 0"
compound=S=c1nccc[nH]1 qualitative_label="class 0"
compound=CCCCNC(N)=O qualitative_label="class 0"
compound=NC(N)=NN=Cc1c(Cl)cccc1Cl qualitative_label="class 0"
compound="CCn1cc(C(=O)O)c(=O)c2cc(F)c(N3CCNC(C)C3)c(F)c21 (stereo not drawn)" qualitative_label="class 0"
compound="Nc1c(Br)cc(Br)cc1CNC1CCC(O)CC1 (stereo not drawn)" qualitative_label="class 0"
compound="C=COCC1CCC(CO)CC1 (stereo not drawn)" qualitative_label="class 0"
compound="C=CC(C)(O)CC/C=C(\\C)CCC=C(C)C (stereo not drawn)" qualitative_label="class 0"
compound=Cc1cccc2c1cc1ccc3cccc4ccc2c1c34 qualitative_label="class 1"
compound="CC(C)c1nc(N(C)S(C)(=O)=O)nc(-c2ccc(F)cc2)c1/C=C/C(O)CC(O)CC(=O)O (stereo not drawn)" qualitative_label="class 0"
compound=CCC(=O)O[C@]1(C(=O)SCF)[C@H](C)C[C@H]2[C@@H]3C[C@H](F)C4=CC(=O)C=C[C@]4(C)[C@@]3(F)[C@@H](O)C[C@@]21C qualitative_label="class 0"
compound=O=C(CCBr)N1CCN(C(=O)CCBr)CC1 qualitative_label="class 0"
compound=Cc1cccc(C)c1Nc1ncccc1C(=O)O qualitative_label="class 0"
compound=CCOC(=O)n1ccn(C)c1=S qualitative_label="class 0"
compound=C=C(C)C(=O)OCC[N+](C)(C)C qualitative_label="class 0"
compound=CCOC(=O)/C=C(C)/C=C/C=C(C)/C=C/c1c(C)cc(OC)c(C)c1C qualitative_label="class 0"
compound=C=CC(=O)OCCOc1ccccc1 qualitative_label="class 0"
compound=CC1(C)O[C@H]2CC(=O)OC[C@]23[C@H]2CC[C@@]4(C)[C@H](c5ccoc5)OC(=O)[C@H]5O[C@]54[C@]2(C)C(=O)C[C@@H]13 qualitative_label="class 0"
compound=CNCCS(=O)(=O)O qualitative_label="class 0"
compound=N#C[C@@H]1C[C@@H]2C[C@@H]2N1C(=O)[C@@H](N)C12CC3CC(CC(O)(C3)C1)C2 qualitative_label="class 0"
compound="CC(=O)N(CC(O)CN(C(C)=O)c1c(I)c(C(=O)NCC(O)CO)c(I)c(C(=O)NCC(O)CO)c1I)c1c(I)c(C(=O)NCC(O)CO)c(I)c(C(=O)NCC(O)CO)c1I (stereo not drawn)" qualitative_label="class 0"
compound=O=C(O)C(=O)Cc1ccccc1 qualitative_label="class 0"
compound=CCCCCCCCCCCCCC qualitative_label="class 0"
compound=Cc1ccc(O)c2ncccc12 qualitative_label="class 0"
compound=Cn1nnc2c(C(N)=O)ncn2c1=O qualitative_label="class 0"
compound=O=C(O)Cn1c(C(=O)Nc2nc(-c3ccccc3Cl)cs2)cc2ccccc21 qualitative_label="class 0"
compound=CCN(CC)C(=O)c1cccnc1 qualitative_label="class 0"
compound=COc1cc(-c2ccc(-[n+]3nc(-c4ccccc4)nn3-c3ccc([N+](=O)[O-])cc3)c(OC)c2)ccc1-[n+]1nc(-c2ccccc2)nn1-c1ccc([N+](=O)[O-])cc1 qualitative_label="class 1"
compound=COc1ccc(C(=O)c2ccccc2O)c(O)c1 qualitative_label="class 0"
compound=CN[C@@H]1[C@H](O)[C@H](NC)[C@H]2O[C@@]3(O)C(=O)C[C@@H](C)O[C@H]3O[C@@H]2[C@H]1O qualitative_label="class 0"
compound=CCCCCCCCCCCBr qualitative_label="class 0"
compound="COC(=O)C1CC(=O)C(C(=O)OC)CC1=O (stereo not drawn)" qualitative_label="class 0"
compound=c1csc(SSc2cccs2)c1 qualitative_label="class 0"
compound=CCOC(=O)c1cnc2c(cnn2CC)c1NN=C(C)C qualitative_label="class 0"
compound=NCCS qualitative_label="class 0"
compound=CC(=O)Oc1cccc(C)c1 qualitative_label="class 0"
compound=Cc1ccc2c(Br)cc(Br)c(O)c2n1 qualitative_label="class 1"
compound="CC(N)C12CC3CC(CC(C3)C1)C2 (stereo not drawn)" qualitative_label="class 0"
compound=CC(=O)OCC1=C(C(=O)O)N2C(=O)[C@@H](NC(=O)Cc3cccs3)[C@H]2SC1 qualitative_label="class 0"
compound="CCCCC(CC)COC(=O)CS (stereo not drawn)" qualitative_label="class 0"
compound="O=C(NCCNCC(O)COc1ccc(O)cc1)N1CCOCC1 (stereo not drawn)" qualitative_label="class 0"
compound=O=C(O)c1ccccc1C(=O)O qualitative_label="class 0"
compound=OC[C@]1(O)OC[C@@H](O)[C@H](O)[C@@H]1O qualitative_label="class 0"
compound=CC(C)C[C@H](NC(=O)[C@H](CCc1ccccc1)NC(=O)CN1CCOCC1)C(=O)N[C@@H](Cc1ccccc1)C(=O)N[C@@H](CC(C)C)C(=O)[C@@]1(C)CO1 qualitative_label="class 1"

###

molecular target: Cellular tumor antigen p53 (Homo sapiens) (UniProt P04637); assay: TOX21_p53_BLA_p4_ratio: Tox21 HCT-116 p53 Agonism Beta-lactamase Assay, Ratio, Phase 4 (AID 2283601)
Records with an inconclusive call do not appear. Activity calls are given as the source filed them. The calls were made as follows: active = hit-call score of the fitted dose curve at least 0.9, where 1 is the maximum; inconclusive = response in the unintended direction; inactive = score below 0.9.
Outcomes: TRUE (active), FALSE (inactive)

compound=COc1ccc(C(=O)CC(=O)c2ccc(C(C)(C)C)cc2)cc1 assayed_target="Cellular tumor antigen p53 (Homo sapiens) (UniProt P04637)" qualitative_label=FALSE
compound=ClCC=CCCl assayed_target="Cellular tumor antigen p53 (Homo sapiens) (UniProt P04637)" qualitative_label=FALSE
compound=CN[C@H](CC(C)C)C(=O)N[C@H]1C(=O)N[C@@H](CC(N)=O)C(=O)N[C@H]2C(=O)N[C@H]3C(=O)N[C@H](C(=O)N[C@H](C(=O)O)c4cc(O)cc(O)c4-c4cc3ccc4O)[C@H](O)c3ccc(c(Cl)c3)Oc3cc2cc(c3O[C@@H]2O[C@H](CO)[C@@H](O)[C@H](O)[C@H]2O[C@H]2C[C@](C)(N)[C@H](O)[C@H](C)O2)Oc2ccc(cc2Cl)[C@H]1O assayed_target="Cellular tumor antigen p53 (Homo sapiens) (UniProt P04637)" qualitative_label=FALSE
compound=COc1c(Br)cc(Br)c(C)c1Br assayed_target="Cellular tumor antigen p53 (Homo sapiens) (UniProt P04637)" qualitative_label=FALSE
compound=CCCC/C=C/CCCCO assayed_target="Cellular tumor antigen p53 (Homo sapiens) (UniProt P04637)" qualitative_label=FALSE
compound="CC1=C(C(=O)OC(C)C)C(c2cccc([N+](=O)[O-])c2)C(C(=O)OC2CN(C(c3ccccc3)c3ccccc3)C2)=C(N)N1 (stereo unspecified)" assayed_target="Cellular tumor antigen p53 (Homo sapiens) (UniProt P04637)" qualitative_label=TRUE

###

assay: TOX21_p53_BLA_p2_viability: Viability Assessment in the Tox21 HCT-116 p53 Agonism Beta-lactamase Assay, Phase 2 (AID 2283591);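 also: compound exposure lasted 16 h at 37 °C; actives lower the ATP signal meaning cytotoxicity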
Results filed as inconclusive are left out. Calls of active or inactive are those of the source. The calls were made as follows: active = hit-call score of the fitted dose curve at least 0.9, where 1 is the maximum; inconclusive = response in the unintended direction; inactive = score below 0.9.
Outcomes: active, inactive

compound=Cn1cc(NC(=O)c2cc(NC(=O)c3cc(NC=O)cn3C)cn2C)cc1C(=O)NCCC(=N)N qualitative_label=inactive
compound=CCn1cc(C(=O)O)c(=O)c2cnc(N3CCNCC3)nc21 qualitative_label=inactive
compound=O=[N+]([O-])c1cc(C2CCCCC2)c(O)c([N+](=O)[O-])c1 qualitative_label=inactive
compound="CCc1ccc2c(c1)N(CC(C)CN(C)C)c1ccccc1S2 (configuration not stated)" qualitative_label=active
compound=NC(=O)NNc1ccccc1 qualitative_label=inactive
compound=CC(=O)N[C@H]1[C@H]([C@H](O)[C@H](O)CO)OC(C(=O)O)=C[C@@H]1N=C(N)N qualitative_label=inactive
compound="CC(O)c1ccccc1 (configuration not stated)" qualitative_label=inactive
compound=Cc1cnc(C(=O)O)c[n+]1[O-] qualitative_label=inactive
compound=CNCc1ccccc1 qualitative_label=inactive
compound=CCC[C@H](N[C@@H](C)C(=O)N1[C@H](C(=O)O)C[C@@H]2CCCC[C@@H]21)C(=O)OCC qualitative_label=inactive
compound="CC(C(=O)O)c1cccc(C(=O)c2ccccc2)c1 (configuration not stated)" qualitative_label=inactive
compound=COc1c(O)cc2c(c1O)[C@@H]1O[C@H](CO)[C@@H](O)[C@H](O)[C@H]1OC2=O qualitative_label=inactive
compound=Cc1nc2n(c(=O)c1CCN1CCC(c3noc4cc(F)ccc34)CC1)CCCC2 qualitative_label=inactive
compound=Cc1ccccc1C(N)=O qualitative_label=inactive
compound=C=CC(=O)OCCCCCCCC qualitative_label=inactive
compound=Cc1ncc(C[n+]2csc(CCOP(=O)(O)O)c2C)c(N)n1 qualitative_label=inactive
compound=CC(=O)Oc1cccc(C(=O)O)c1OC(C)=O qualitative_label=inactive
compound="NS(=O)(=O)c1cc2c(cc1Cl)NC(CC1CCCC1)NS2(=O)=O (configuration not stated)" qualitative_label=inactive
compound=COc1ccc(CCNC[C@H](O)c2ccc(O)cc2)cc1OC qualitative_label=inactive
compound=O=P(O)(O)C(O)(Cc1cccnc1)P(=O)(O)O qualitative_label=inactive
compound=CCCCCOC(=O)CCCC qualitative_label=inactive
compound="CC(S)C(=O)NCC(=O)O (configuration not stated)" qualitative_label=inactive
compound="C1=CCC(c2ccccc2)CC1 (configuration not stated)" qualitative_label=inactive
compound=CC(=C(CCOP(=O)(O)O)SC(=O)c1ccccc1)N(C=O)Cc1cnc(C)nc1N qualitative_label=inactive
compound="CC(C)OCC1CO1 (configuration not stated)" qualitative_label=inactive
compound=CC1=C2[C@@H]([C@H](C)CC[C@H]2/C=C(\C)C(=O)O)[C@H](O)C1 qualitative_label=inactive
compound="C=CC(=O)OCC1CC2CC1C1CCC(COC(=O)C=C)C21 (configuration not stated)" qualitative_label=active
compound=CCCC/C=C/CCCCO qualitative_label=inactive
compound=Nc1ccc2cc(S(=O)(=O)O)cc(O)c2c1 qualitative_label=inactive
compound=Cc1cccc2cccnc12 qualitative_label=inactive
compound=C[C@@]12C(=O)OC(=O)[C@]1(C)C1CCC2O1 qualitative_label=inactive
compound="CCN(CC)CCOc1ccc(C(O)(Cc2ccc(Cl)cc2)c2ccc(C)cc2)cc1 (configuration not stated)" qualitative_label=active
compound="CC1(C)S[C@@H]2[C@H](NC(=O)C(c3ccccc3)S(=O)(=O)O)C(=O)N2[C@H]1C(=O)O (some centres not stated)" qualitative_label=inactive
compound=CC(=O)C=Cc1ccco1 qualitative_label=inactive
compound=Nc1ccc(S(=O)(=O)NCc2ccccc2)cc1 qualitative_label=inactive
compound=NCCCC[C@H](NC(=O)[C@@H]1CCCN1C(=O)[C@@H]1CSSC[C@H](N)C(=O)N[C@@H](Cc2ccccc2)C(=O)N[C@@H](Cc2ccccc2)C(=O)N[C@@H](CCC(N)=O)C(=O)N[C@@H](CC(N)=O)C(=O)N1)C(=O)NCC(N)=O qualitative_label=inactive
compound=CC(CO)(CO)C(=O)O qualitative_label=inactive
compound=COc1ccc(C(=O)CC(=O)c2ccc(C(C)(C)C)cc2)cc1 qualitative_label=inactive
compound=CCCCCCCCCCC(=O)O qualitative_label=inactive
compound=O=C(O)CCC(=O)OC[C@@H](NC(=O)C(Cl)Cl)[C@H](O)c1ccc([N+](=O)[O-])cc1 qualitative_label=inactive
compound=O=C(CCC1CCN(Cc2ccccc2)CC1)c1ccc2c(c1)NCCCC2 qualitative_label=inactive
compound=OCCN(CCO)CCN(CCO)CCO qualitative_label=inactive
compound=N[C@H](C(=O)O)[C@@H]1CC(Cl)=NO1 qualitative_label=active
compound=CCCCCCCC/C=C\CCCCCCCC(=O)NCc1ccc(O)c(OC)c1 qualitative_label=inactive
compound=O=C(NC1CCN(CCc2c[nH]c3ccccc23)CC1)c1ccccc1 qualitative_label=inactive
compound=CC(C)CC(O)CC(C)C qualitative_label=inactive
compound="CC1(C)C2CC[C@]3(C)[C@H](C(=O)C=C4[C@@H]5C[C@@](C)(C(=O)O)CC[C@]5(C)CC[C@]43C)[C@@]2(C)CC[C@@H]1O[C@H]1O[C@H](C(=O)O)[C@@H](O)[C@H](O)[C@H]1O[C@@H]1O[C@H](C(=O)O)[C@@H](O)[C@H](O)[C@H]1O (some centres not stated)" qualitative_label=inactive

FYI, the data here is from PubChem BioAssay (EPA / NIEHS).
